Biological target: UniProt P28223
Sequence (P28223 whole entry): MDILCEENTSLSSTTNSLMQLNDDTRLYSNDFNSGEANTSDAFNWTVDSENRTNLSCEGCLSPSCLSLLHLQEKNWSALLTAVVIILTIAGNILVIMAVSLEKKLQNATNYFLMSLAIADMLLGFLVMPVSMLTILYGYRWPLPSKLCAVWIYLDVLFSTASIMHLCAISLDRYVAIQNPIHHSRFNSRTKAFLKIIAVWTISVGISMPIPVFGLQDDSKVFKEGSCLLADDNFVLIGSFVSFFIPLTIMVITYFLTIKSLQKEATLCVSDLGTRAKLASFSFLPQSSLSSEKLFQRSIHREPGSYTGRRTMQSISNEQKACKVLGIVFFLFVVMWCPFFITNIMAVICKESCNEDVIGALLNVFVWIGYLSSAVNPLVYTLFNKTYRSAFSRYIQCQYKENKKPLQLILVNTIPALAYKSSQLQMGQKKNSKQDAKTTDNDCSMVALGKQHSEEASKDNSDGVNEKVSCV
Assay: Calcium flux test for 5-HT2A receptor
Type: cell-based
Conditions: CHO cell strain stably expressing 5-HT2A receptor; positive control ketanserin 10^−7 M
Excerpt: • Fluo-4 calcium flux detection kit was purchased from Invitrogen; a CHO cell strain stably expressing 5-HT2A receptor was purchased from PerkinElmer; serotonin was purchased from Sigma; ketanserin was purchased from Targetmol; polylysine-coated 384-well plates and 384-well compound plates were purchased from Greiner Bio-One. […] Inhibition rate (Inhibition %)=(negative control reading value−compound reading value)/(negative control reading value−positive control reading value)×100%
Note to self: values exactly at 90% are met. So 5-HT2A Max Inh % at or above 90% is met, below is not met.

// known answers, use as guide
{"molecule": "O=C1Nc2cc(OCCCCN3CCN(c4cccc5c4CCO5)CC3)ccc2C2CC12 (single isomer, unassigned) [Example 45-P2]", "cat": "met"}
{"molecule": "O=C1CCc2ccc(OCCCCN3CCN(c4cccc(Cl)c4Cl)CC3)cc2N1 [Aripiprazole, reference compound]", "cat": "not met"}
{"molecule": "O=C1Nc2cc(OCCCCN3CCN(c4cccc(Cl)c4Cl)CC3)ccc2C2CC12 (centres unmarked)", "cat": "met"}

Inquiry: Dear colleague, could you confirm whether O=C1COc2ccc(OCCCCN3CCN(c4cccc(Cl)c4Cl)CC3)cc2N1 [RP5063, reference compound] has 5-HT2A Max Inh % at or above 90%?
Reply text: not met

Inquiry: Dear colleague, could you confirm whether O=C1Nc2cc(OCCCCN3CCN(c4cccc5c4OC(F)(F)O5)CC3)ccc2C2CC12 (centres unmarked) has 5-HT2A Max Inh % at or above 90%?
Reply text: not met

Inquiry: Dear colleague, could you confirm whether O=C1Nc2cc(OCCCCN3CCN(c4cccc(Cl)c4Cl)CC3)ccc2[C@H]2C[C@@H]12 (single isomer, unassigned) [Example 1-P1] has 5-HT2A Max Inh % at or above 90%?
Reply text: met

Inquiry: Dear colleague, could you confirm whether O=C1Nc2cc(OCCCCN3CCN(c4cccc5c4OCC5)CC3)ccc2C2CC12 (centres unmarked) [Example 44] has 5-HT2A Max Inh % at or above 90%?
Reply text: met

====

Molecular target: D2S receptor (Homo sapiens, UniProt P14416)
Sequence (P14416 1-414 isoform P14416-2): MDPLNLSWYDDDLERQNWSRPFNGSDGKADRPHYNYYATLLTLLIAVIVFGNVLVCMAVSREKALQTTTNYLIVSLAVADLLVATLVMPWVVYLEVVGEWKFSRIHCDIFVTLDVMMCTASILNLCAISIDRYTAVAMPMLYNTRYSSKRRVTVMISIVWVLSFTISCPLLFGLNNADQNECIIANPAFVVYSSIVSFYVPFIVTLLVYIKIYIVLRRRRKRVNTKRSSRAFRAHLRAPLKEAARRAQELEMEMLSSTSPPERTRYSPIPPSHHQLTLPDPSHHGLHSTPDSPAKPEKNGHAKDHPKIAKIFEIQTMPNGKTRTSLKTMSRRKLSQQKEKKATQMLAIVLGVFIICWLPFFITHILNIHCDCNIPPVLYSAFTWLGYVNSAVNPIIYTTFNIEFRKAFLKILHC
Assay: D2S receptor cAMP agonist test
Conditions: HEK293 cell strain stably expressing D2S receptor; cAMP; forskolin 5×10^−7 M
Listed compounds paired with reported pEC50
Give only the number. pEC50 is defined as minus log10 of concentration in molar units.

{"compound": "O=C1Nc2cc(OCCCCN3CCN(c4cccc5c4CC(F)(F)C5)CC3)ccc2C2CC12 (stereo not drawn)", "tested_on": "D2S receptor (Homo sapiens, UniProt P14416)", "pEC50": 9.03}
{"compound": "O=C1Nc2cc(OCCCCN3CCN(c4cccc5sccc45)CC3)ccc2C2CC12 (stereo not drawn) [Example 42]", "tested_on": "D2S receptor (Homo sapiens, UniProt P14416)", "pEC50": 9.02}

Next, consider the following compound.
Inquiry: Give recorded pEC50 with D2S receptor (Homo sapiens, UniProt P14416) for the following compound: O=C1Nc2cc(OCCCCN3CCN(c4cccc5c4CCC5)CC3)ccc2C2CC12 (stereo not drawn) [Example 43]
Reply text: 9.04

====

Biological target: D2L receptor (Homo sapiens, UniProt P14416)
Construct: expressed in transfected cells
Sequence (P14416 whole entry): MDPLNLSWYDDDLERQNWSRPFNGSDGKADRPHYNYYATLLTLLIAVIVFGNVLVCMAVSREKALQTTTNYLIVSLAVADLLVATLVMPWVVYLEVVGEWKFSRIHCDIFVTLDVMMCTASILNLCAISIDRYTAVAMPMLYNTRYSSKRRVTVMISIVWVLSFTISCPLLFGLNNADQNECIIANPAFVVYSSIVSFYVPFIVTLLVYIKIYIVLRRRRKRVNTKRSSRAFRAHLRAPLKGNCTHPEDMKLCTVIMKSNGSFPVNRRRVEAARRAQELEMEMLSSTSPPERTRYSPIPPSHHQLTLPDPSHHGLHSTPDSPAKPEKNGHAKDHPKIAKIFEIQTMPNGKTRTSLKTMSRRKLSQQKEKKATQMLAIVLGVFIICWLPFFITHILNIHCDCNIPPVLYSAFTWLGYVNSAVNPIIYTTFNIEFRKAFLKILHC
Experiment: D2L receptor cAMP agonist test
Assay type: cell-based
Conditions: HEK293 cell strain stably expressing D2L receptor; positive control dopamine 1 μM
Note to self: values exactly at 40% are true (1). So D2L Max Act % at or above 40% is true (1), below is false (0).

// known answers, use as guide
{"compound": "O=C1Nc2cc(OCCCCN3CCN(c4cccc5c4OCC5)CC3)ccc2C2CC12 (single isomer, unassigned) [Example 44-P2]", "cat": "true (1)"}
{"compound": "O=C1Nc2cc(OCCCCN3CCN(c4cccc(O)c4Cl)CC3)ccc2C2CC12 (stereo not shown)", "cat": "false (0)"}
{"compound": "O=C1Nc2cc(OCCCCN3CCN(c4cccc5c4OC(F)(F)O5)CC3)ccc2C2CC12 (stereo not shown)", "cat": "true (1)"}
{"compound": "O=C1Nc2cc(OCCCCN3CCN(c4cccc5sccc45)CC3)ccc2C2CC12 (single isomer, unassigned) [Example 42-P1]", "cat": "false (0)"}
{"compound": "O=C1Nc2cc(OCCCCN3CCN(c4cccc(Cl)c4Cl)CC3)ccc2C2CC12 (stereo not shown)", "cat": "true (1)"}
{"compound": "O=C1Nc2cc(OCCCCN3CCN(c4cccc5c4CCC5)CC3)ccc2C2CC12 (single isomer, unassigned) [Example 43-P1]", "cat": "false (0)"}

Inquiry: Dear colleague, could you confirm whether O=C1Nc2cc(OCCCCN3CCN(c4cccc5c4CCC5)CC3)ccc2C2CC12 (single isomer, unassigned) [Example 43-P2] has D2L Max Act % at or above 40%?
Reply text: false (0)

Inquiry: Dear colleague, could you confirm whether O=C1Nc2cc(OCCCCN3CCN(c4cccc5c4CCO5)CC3)ccc2C2CC12 (stereo not shown) [Example 45] has D2L Max Act % at or above 40%?
Reply text: true (1)

Inquiry: Dear colleague, could you confirm whether O=C1Nc2cc(OCCCCN3CCN(c4cccc(Cl)c4Cl)CC3)ccc2[C@H]2C[C@@H]12 (single isomer, unassigned) [Example 1-P1] has D2L Max Act % at or above 40%?
Reply text: true (1)

Inquiry: Dear colleague, could you confirm whether O=C1Nc2cc(OCCCCN3CCN(c4cccc5c4OCC5)CC3)ccc2C2CC12 (stereo not shown) [Example 44] has D2L Max Act % at or above 40%?
Reply text: true (1)

====

Experiment: Pharmacokinetic test in mice
Format: in vivo
Conditions: male, ICR, mouse, plasma, po, 5 mg/kg, oral intragastric, single dose 5 mg/kg, read-out: AUC(0-inf)
Classify on AUC(0-inf) using bin 0 (below 7000 ng·h/mL), bin 1 (7000 ng·h/mL to below 10000 ng·h/mL), bin 2 (10000 ng·h/mL or more)

// known answers, use as guide
{"compound": "O=C1Nc2cc(OCCCCN3CCN(c4cccc5c4CC(F)(F)C5)CC3)ccc2C2CC12 (centres unmarked) [Example 46]", "cat": "bin 2"}
{"compound": "O=C1CCc2ccc(OCCCCN3CCN(c4cccc(Cl)c4Cl)CC3)cc2N1 [Aripiprazole, reference compound]", "cat": "bin 0"}
{"compound": "O=C1Nc2cc(OCCCCN3CCN(c4cccc(Cl)c4Cl)CC3)ccc2[C@H]2C[C@@H]12 (single isomer, unassigned) [Example 1-P1]", "cat": "bin 2"}
{"compound": "O=C1Nc2cc(OCCCCN3CCN(c4cccc5c4CCO5)CC3)ccc2C2CC12 (centres unmarked) [Example 45]", "cat": "bin 1"}
{"compound": "O=C1Nc2cc(OCCCCN3CCN(c4cccc5c4CCO5)CC3)ccc2C2CC12 (single isomer, unassigned) [Example 45-P1]", "cat": "bin 0"}

Inquiry: Which class is correct for the following compound? O=C1Nc2cc(OCCCCN3CCN(c4cccc5sccc45)CC3)ccc2C2CC12 (single isomer, unassigned) [Example 42-P1]
Reply text: bin 1

Inquiry: Which class is correct for the following compound? O=C1Nc2cc(OCCCCN3CCN(c4cccc5sccc45)CC3)ccc2C2CC12 (centres unmarked) [Example 42]
Reply text: bin 2

Inquiry: Which class is correct for the following compound? O=C1COc2ccc(OCCCCN3CCN(c4cccc(Cl)c4Cl)CC3)cc2N1 [RP5063, reference compound]
Reply text: bin 0

====

Assay: Pharmacokinetic test in mice
Type: in vivo
Conditions: male, ICR, mouse, plasma, po, 3 mg/kg, oral intragastric, single dose 3 mg/kg, read-out: AUC(0-inf)
property_name: AUC(0-inf) (ng·h/mL)
Dear colleague, please return just the value in ng·h/mL, with no unit written.

Inquiry: Suppose we examine the molecule O=C1Nc2cc(OCCCCN3CCN(c4cccc5sc(Cl)cc45)CC3)ccc2C2CC12 (stereo not shown) ; what AUC(0-inf) value has been reported?
Reply text: 4780

====

Listed compounds paired with reported EC50
Target: D2S receptor (Homo sapiens, UniProt P14416)
Experiment: D2S receptor cAMP agonist test
Details: HEK293 cell strain stably expressing D2S receptor; cAMP; forskolin 5×10^−7 M
Record the result as a number with its unit.

Example entries and their recorded answers appear below.
{"compound": "O=C1Nc2cc(OCCCCN3CCN(c4cccc5c4CCC5)CC3)ccc2C2CC12 (single isomer, unassigned) [Example 43-P1]", "EC50": "1.3 nM"}
{"compound": "O=C1Nc2cc(OCCCCN3CCN(c4cccc5c4CCC5)CC3)ccc2C2CC12 (single isomer, unassigned) [Example 43-P2]", "EC50": "0.92 nM"}
{"compound": "O=C1Nc2cc(OCCCCN3CCN(c4cccc5c4CCO5)CC3)ccc2C2CC12 (single isomer, unassigned) [Example 45-P1]", "EC50": "1.01 nM"}
{"compound": "O=C1Nc2cc(OCCCCN3CCN(c4cccc5c4OCC5)CC3)ccc2C2CC12 (single isomer, unassigned) [Example 44-P2]", "EC50": "0.92 nM"}
{"compound": "O=C1Nc2cc(OCCCCN3CCN(c4cccc5c4OC(F)(F)O5)CC3)ccc2C2CC12 (stereo not drawn) [Example 41]", "EC50": "0.92 nM"}
{"compound": "O=C1Nc2cc(OCCCCN3CCN(c4cccc5c4CCO5)CC3)ccc2C2CC12 (stereo not drawn) [Example 45]", "EC50": "0.93 nM"}

Inquiry: Suppose we examine the compound O=C1Nc2cc(OCCCCN3CCN(c4cccc5sccc45)CC3)ccc2C2CC12 (single isomer, unassigned) [Example 42-P1] ; what EC50 value has been reported?
Reply text: 1 nM

Inquiry: Suppose we examine the compound O=C1Nc2cc(OCCCCN3CCN(c4cccc(Cl)c4Cl)CC3)ccc2[C@@H]2C[C@H]12 (single isomer, unassigned) [Example 1-P2] ; what EC50 value has been reported?
Reply text: 1.49 nM

Inquiry: Suppose we examine the compound O=C1Nc2cc(OCCCCN3CCN(c4cccc5c4OCC5)CC3)ccc2C2CC12 (stereo not drawn) [Example 44] ; what EC50 value has been reported?
Reply text: 0.93 nM

Inquiry: Suppose we examine the compound O=C1Nc2cc(OCCCCN3CCN(c4cccc(Cl)c4Cl)CC3)ccc2C2CC12 (stereo not drawn) [Example 1] ; what EC50 value has been reported?
Reply text: 0.97 nM

Inquiry: Suppose we examine the compound O=C1Nc2cc(OCCCCN3CCN(c4cccc5ccsc45)CC3)ccc2C2CC12 (stereo not drawn) [Example 48] ; what EC50 value has been reported?
Reply text: 0.89 nM

Inquiry: Suppose we examine the compound O=C1Nc2cc(OCCCCN3CCN(c4cccc(Cl)c4Cl)CC3)ccc2[C@H]2C[C@@H]12 (single isomer, unassigned) [Example 1-P1] ; what EC50 value has been reported?
Reply text: 0.94 nM

Inquiry: Suppose we examine the compound O=C1Nc2cc(OCCCCN3CCN(c4ccc(Cl)s4)CC3)ccc2C2CC12 (stereo not drawn) [Example 51] ; what EC50 value has been reported?
Reply text: 0.76 nM

Inquiry: Suppose we examine the compound O=C1Nc2cc(OCCCCN3CCN(c4cccc5c4CCO5)CC3)ccc2C2CC12 (single isomer, unassigned) [Example 45-P2] ; what EC50 value has been reported?
Reply text: 0.89 nM

Inquiry: Suppose we examine the compound O=C1Nc2cc(OCCCCN3CCN(c4cccc5c4OCC5)CC3)ccc2C2CC12 (single isomer, unassigned) [Example 44-P1] ; what EC50 value has been reported?
Reply text: 0.98 nM
